# Target: Autotaxin (Homo sapiens, UniProt Q13822)
Measured quantity: IC50 (nM)
Numbers only, in nM.

Measured IC50, CC(=O)N1CCCN(c2ccc3ncn(CC(=O)NCc4ccc(Cl)c(Cl)c4)c(=O)c3c2)CC1 : 35
